test protocol: Pharmacokinetic studies in mice after intravenous and oral administration
Format: in vivo
protocol conditions: mouse; intravenous 5 mg/kg, male CD-1 mice, plasma
Task for the reader: assign each of the following compounds its reported AUC(0-t).
One number for each entry, in ng·h/mL.

Solved entries:
>>> quantitative_result("C[C@H]1CN(c2c(F)c(S(=O)(=O)NC3(C#N)CC3)cc3c2cnn3-c2nnc(C(F)(F)F)s2)C[C@H](C)N1")
2410
>>> quantitative_result("C[C@H]1CN(c2cc(S(=O)(=O)NC3(C)CC3)cc3c2cnn3-c2nnc(C(F)F)s2)C[C@H](C)N1 [Compound 1′, reference compound]")
905
>>> quantitative_result("C[C@H]1CN(c2c(F)c(S(=O)(=O)NC3(C)CC3)cc3c2cnn3-c2nnc(C(F)F)s2)C[C@H](C)N1")
1600
>>> quantitative_result("C[C@H]1CN(c2c(F)c(S(=O)(=O)NC3(C)CC3)cc3c2cnn3-c2nnc(C(F)(F)F)s2)C[C@H](C)N1")
1990

Fill in AUC(0-t) for record `C[C@H]1CN(c2cc(S(=O)(=O)NC3(C)CC3)cc3c2cnn3-c2nnc(C(F)(F)F)s2)C[C@H](C)N1`
2540
